- method: qHTS Assay for Inhibitors of Hepatitis C Virus (HCV)
- particulars: Huh7.5.1 HCVcc-Cre infection, luciferase reporter, 44 h; series mostly up to 41.8 µM
Screen size: about 340,000 compounds; about 12,000 (3.5%) were called active. Inconclusive results (about 18%) are left out. Calls come from the whole dose curve; as a rule, active = well fitted inhibition curve with a large enough effect; inconclusive = small, poorly fitted or top-dose-only effect, or another doubt; inactive = no such curve, though single readings can be large or run the other way. The entries come from a sample that favours actives as a whole.
Outcome codes: active, inactive

- molecule: "CSCCC(NC(=O)c1ccco1)C(=O)Nc1cc(C)ccn1 (stereo not given)"
  qualitative-label: "inactive"
- molecule: "COc1ccc(S(=O)(=O)NC(C)C)cc1C(=O)NC1CCCCC1"
  qualitative-label: "inactive"
- molecule: "O=C(CNC(=O)c1ccccc1F)OCC(=O)c1c[nH]c2ccccc12"
  qualitative-label: "inactive"
- molecule: "CCC(=O)N1c2ccc(S(=O)(=O)NCc3ccco3)cc2CC1C (stereo not given)"
  qualitative-label: "inactive"
- molecule: "CC(=O)NC12CC3CC(C1)CC(C(=O)N1CCN(S(=O)(=O)c4cccs4)CC1)(C3)C2"
  qualitative-label: "inactive"
- molecule: "COc1cccc(CNS(=O)(=O)c2ccc3c(c2)CC(C)N3C(=O)C2CCC2)c1 (stereo not given)"
  qualitative-label: "active"
- molecule: "COc1cccc(CNS(=O)(=O)c2ccc3c(c2)CC(C)N3C(C)=O)c1 (stereo not given)"
  qualitative-label: "inactive"
- molecule: "O=C(NNc1nc(N2CCCC2)nc(N2CCCC2)n1)c1ccccc1"
  qualitative-label: "inactive"
- molecule: "COc1ccccc1N(C)S(=O)(=O)c1ccc(C(=O)NC2CCCCCC2)cc1"
  qualitative-label: "active"
- molecule: "CCOC(=O)C1CCN(C(=O)c2cccc(S(=O)(=O)N(CC)c3ccccc3)c2)CC1"
  qualitative-label: "inactive"

---

- method: qHTS Assay for Inhibitors of Hepatitis C Virus (HCV)
- particulars: Huh7.5.1 HCVcc-Cre infection, luciferase reporter, 44 h; series mostly up to 41.8 µM
Among all 340,000 compounds or so, about 12,000 (3.5%) were called active. Another 18% or so got no clear call; they are omitted. The call rests on the fitted dose curve; in most records, active means well fitted inhibition curve with a large enough effect; inconclusive means small, poorly fitted or top-dose-only effect, or another doubt; inactive means no such curve, though single readings can be large or run the other way. Shown is part of a subset that was picked to be rich in actives.
Outcome codes: y for active, n for inactive

- molecule: "CCCCCCC(=O)Nc1nc(C)c(-c2csc(Nc3cc(Cl)ccc3OC)n2)s1"
  qualitative-label: "n"
- molecule: "COc1cccc(C(=O)N2CCC(n3nccc3NC(=O)C3CCOC3)CC2)c1 (stereo unspecified)"
  qualitative-label: "n"
- molecule: "O=C(c1cc(COc2ccc(F)c(F)c2)on1)N1CCOCC1"
  qualitative-label: "n"
- molecule: "Cc1ccc(Nc2nc(-c3sc(NC(=O)c4ccccc4)nc3C)cs2)cc1"
  qualitative-label: "n"
- molecule: "CCS(=O)(=O)NCCc1ccc(OC)c(OC)c1"
  qualitative-label: "n"
- molecule: "COc1ccc(CCNc2nc(C)cc(C)n2)cc1OC"
  qualitative-label: "n"
- molecule: "CC(C)(C)OC(=O)C[C@@H]1C/C=C\\C[C@@H](CC(=O)N[C@H](CO)Cc2ccccc2)C(=O)NCCOC1=O"
  qualitative-label: "n"
- molecule: "NS(=O)(=O)c1ccc(CCNC(=O)CN2C(=O)c3ccccc3S2(=O)=O)cc1"
  qualitative-label: "n"
- molecule: "COc1ccc(Cl)cc1NC(=O)CN1CCN(C(=O)N2CCOCC2)CC1"
  qualitative-label: "n"
- molecule: "Cc1ccc(C)c(NC(=O)COC(=O)c2nn(C)c(=O)c3ccccc23)c1"
  qualitative-label: "n"
- molecule: "Cc1noc(C)c1C(=O)OC(C)C(=O)Nc1ccc2c(c1)OCO2 (stereo unspecified)"
  qualitative-label: "n"
- molecule: "Cc1cccc(CC2(O)C(=O)Nc3ccccc32)n1 (stereo unspecified)"
  qualitative-label: "n"
- molecule: "C=C(C)COc1ccc(-c2nc(N)ncc2-c2ccccc2OC)c(O)c1"
  qualitative-label: "y"
- molecule: "CN(C(=O)COC(=O)Cc1ccccc1[N+](=O)[O-])C1CCS(=O)(=O)C1 (stereo unspecified)"
  qualitative-label: "n"
- molecule: "Cc1ccccc1-c1cc(C(=O)NCc2cccs2)n(CC2CC(c3cccnc3)=NO2)n1 (stereo unspecified)"
  qualitative-label: "n"
- molecule: "CN(C)CC(O)COc1ccc(C(C)(C)c2ccc(OCC(O)CN(C)C)cc2)cc1 (stereo unspecified)"
  qualitative-label: "y"
- molecule: "NS(=O)(=O)c1ccc(CCNC(=O)CCCn2c(SCC(=O)N3CCCC3)nc3ccsc3c2=O)cc1"
  qualitative-label: "y"
- molecule: "Fc1ccccc1COc1cccc2cccnc12"
  qualitative-label: "n"
- molecule: "CC[C@]1(C(=O)OC)[C@H]2C(=O)N(Cc3ccccc3)C(=O)[C@H]2[C@H]2CN=C(SCc3ccccc3)N21"
  qualitative-label: "n"
- molecule: "COc1cccc(N2CCN(CC(=O)Nc3ccnn3C3CCCC3)CC2)c1"
  qualitative-label: "y"
- molecule: "CN(CC(=O)Nc1ccccc1Cl)C(=O)c1ccccc1SCC(=O)N1CCCC1"
  qualitative-label: "n"

---

- method: qHTS Assay for Inhibitors of Hepatitis C Virus (HCV)
- particulars: Huh7.5.1 HCVcc-Cre infection, luciferase reporter, 44 h; series mostly up to 41.8 µM
Hit rate of the full screen: of about 340,000 compounds, about 12,000 (3.5%) were called active. Inconclusive results (about 18%) are left out. The call rests on the fitted dose curve; in most records, active means well fitted inhibition curve with a large enough effect; inconclusive means small, poorly fitted or top-dose-only effect, or another doubt; inactive means no such curve, though single readings can be large or run the other way. Only a selection was taken, and actives are over-represented in it overall.
Outcome codes: active, inactive

- compound: "O=C1/C(=C/c2ccc3c(c2)OCO3)CCC/C1=C\\c1ccc2c(c1)OCO2"
  qualitative-label: "inactive"
- compound: "COc1cc(/C=C/C(=O)OCC(=O)NC2CC2)cc(OC)c1OC"
  qualitative-label: "inactive"
- compound: "COc1cc(OC)cc(-c2c(-c3cccs3)c3cc(-c4ccc(OC)nc4)ccc3n2C)c1"
  qualitative-label: "inactive"
- compound: "O=C(N/N=C/c1ccc(O)c2ccccc12)c1cccnc1"
  qualitative-label: "inactive"
- compound: "COc1ccc(S(=O)(=O)Nc2cccc3c2O[C@H](CN(C)S(=O)(=O)c2ccc(OC)cc2)[C@@H](C)CN([C@H](C)CO)C3=O)cc1"
  qualitative-label: "inactive"
- compound: "COc1ccccc1CNC(=O)COC(=O)c1cccs1"
  qualitative-label: "inactive"
- compound: "C[C@]12CCC(=O)C=C1C=CC1C2CC[C@@]2(C)C1CC[C@@]21CCC(=O)O1 (some centres undefined)"
  qualitative-label: "inactive"
- compound: "Cc1ccc(NC(=O)CSCC(=O)Nc2sccc2C#N)cc1"
  qualitative-label: "inactive"
- compound: "N#C/C(=C1\\CCCN1)c1nc(-c2ccccc2)cs1"
  qualitative-label: "active"
- compound: "CC(C)(C)c1ccc(C(=O)NCc2ccco2)cc1"
  qualitative-label: "inactive"
- compound: "CSCCC(NC(=O)COc1ccccc1)C(=O)N(C)CC(=O)Nc1ccc(C)cc1 (centres undefined)"
  qualitative-label: "inactive"
- compound: "Cc1nn(-c2ccccc2)c(C)c1C(=O)OCC(=O)NC(=O)NC1CCCCC1"
  qualitative-label: "inactive"
- compound: "COc1ccc(-c2c(C#Cc3ccccc3)c3ccccc3n2C)cc1"
  qualitative-label: "inactive"
- compound: "CC1CCc2sc3nc(N4CCN(CCO)CC4)n4ncnc4c3c2C1 (centres undefined)"
  qualitative-label: "active"
- compound: "COc1ccccc1CNC(=O)COn1nnc2ccc(S(=O)(=O)N3CCOCC3)cc21"
  qualitative-label: "inactive"
- compound: "CNS(=O)(=O)c1ccc(C(=O)NCC(=O)NCCc2ccc3c(c2)OCCO3)cc1"
  qualitative-label: "inactive"
- compound: "COc1ccc(C)cc1NC(=O)CN1c2cccc3cccc(c23)S1(=O)=O"
  qualitative-label: "inactive"
- compound: "COc1cc(OC)cc(-c2c(C#Cc3ccsc3)c3cc(-c4ccc(SC)cc4)ccc3n2C)c1"
  qualitative-label: "inactive"
- compound: "O=C(CCc1ccc(S(=O)(=O)N2CCOCC2)cc1)OCC(=O)c1ccc(Br)cc1"
  qualitative-label: "inactive"
- compound: "Cc1nc(/N=C(\\N)NC(=O)NC2CCCCC2)nc2ccccc12"
  qualitative-label: "active"
- compound: "O=S1(=O)CSCS(=O)(=O)C1"
  qualitative-label: "inactive"
- compound: "O=[N+]([O-])c1ccc(N=NNc2ccc([N+](=O)[O-])cc2)cc1"
  qualitative-label: "inactive"
- compound: "COc1cc2ccccc2cc1C(=O)N1CCOCC1"
  qualitative-label: "inactive"
- compound: "Cc1nn(C)cc1/C=C1\\CCC/C(=C\\c2cn(C)nc2C)C1=O"
  qualitative-label: "active"
- compound: "Cc1cc(NC(=O)c2cnn3cccnc23)n(-c2ccccc2)n1"
  qualitative-label: "active"
- compound: "Cc1ccc(C)c(NC(=O)CN(C)C(=O)c2ccc3ncsc3c2)c1"
  qualitative-label: "inactive"
- compound: "CCOc1ccc(C(=O)CCC(=O)Nc2ccncc2)cc1"
  qualitative-label: "inactive"
- compound: "Cn1c(/C(C#N)=C2/CCCCCN2)nc2ccccc21"
  qualitative-label: "inactive"
- compound: "Cn1c(=O)c2c(nc(Br)n2CCSc2nc3ccccc3o2)n(C)c1=O"
  qualitative-label: "inactive"
- compound: "CCC(C)(C)n1nnnc1C(c1ccccc1OC)N1CCSCC1 (centres undefined)"
  qualitative-label: "inactive"
- compound: "COc1ccc(CCN(C)C(=O)C2CCCN(Cc3ccc(OC)c(OC)c3)C2)cc1OC (centres undefined)"
  qualitative-label: "inactive"
- compound: "Cc1ccc(OCCOCCOc2ccc(Br)cc2/C=N\\NC(=O)c2ccncc2)cc1"
  qualitative-label: "inactive"
- compound: "CCCn1nnc2sc3c(c2c1=O)CCC(C)C3 (centres undefined)"
  qualitative-label: "inactive"
- compound: "CCCS(=O)(=O)N1CCC(CCOc2ccccc2)(C(=O)OCC)CC1"
  qualitative-label: "inactive"
- compound: "CCn1cc(/C=C2/SC(=S)NC2=O)c(C)n1"
  qualitative-label: "inactive"
- compound: "COc1cc(OC)cc(-c2c(C#Cc3ccsc3)c3cc(-c4ccc(OC)cc4F)ccc3n2C)c1"
  qualitative-label: "inactive"
- compound: "COC(=O)C1CCN(C(=O)NC2CC(=O)N(c3ccc4c(c3)OCCO4)C2)CC1 (centres undefined)"
  qualitative-label: "inactive"
- compound: "O=C(NCCN1CCOCC1)c1cccc(S(=O)(=O)Nc2ccc(F)cc2)c1"
  qualitative-label: "inactive"
- compound: "CCC(C)(C)n1nnnc1C(c1cccs1)N1CCN(c2nc3ccccc3s2)CC1 (centres undefined)"
  qualitative-label: "active"
- compound: "CCOC(=O)C1(CCOC)CCN(Cc2ccc(C(=O)OC)cc2)CC1"
  qualitative-label: "inactive"
- compound: "O=C(COC(=O)c1ccc(O)cc1O)NNC(=O)c1cccs1"
  qualitative-label: "inactive"
- compound: "CC1CCc2c(sc3nc4n(c(=O)c23)CCS4)C1 (centres undefined)"
  qualitative-label: "inactive"
- compound: "O=C(COC(=O)COc1cccc(F)c1)NCC1CCCCC1"
  qualitative-label: "inactive"
- compound: "CCC(C)NCCOCCOc1ccc(Br)cc1C (centres undefined)"
  qualitative-label: "active"
